# Tested on: kochia (Bassia scoparia)
# Run Description: Test A1 postemergence, kochia
# Type: in vivo
# Conditions Used: Postemergence, 125 g ai/ha; 0 to 100 scale
Could you label it class 1 if measured Plant response rating, Kochia is 60 or higher, and class 0 otherwise?

Does Plant response rating, Kochia meet or surpass 60 for `Cc1c(C2=NO[C@@H]3CCC[C@H]23)cc(N(COC(=O)C(C)(C)C)S(=O)(=O)C(F)(F)F)c(C)c1C` ? class 1

// same read-out, input: Cc1cc(C)c(N(COC(=O)C(C)(C)C)S(=O)(=O)C(F)(F)F)cc1C1=NOC2OCCC12 (centres unmarked) class 1

Then `Cc1c(C(=O)N2CCOCC2)cc(N(COC(=O)C(C)(C)C)S(=O)(=O)C(F)(F)F)c(C)c1C` ? class 0

One more molecule: `COc1cnn(-c2cc(NS(=O)(=O)C(F)(F)F)c(C)cc2C)c(=O)c1OC` class 0

Another molecule to check: `Cc1c(NS(=O)(=O)C(F)(F)F)cc(C(=O)N(C)C)c(C)c1C` class 0

Could you do the same for Cc1cc(C)c(N(C(=O)OCC(C)C)S(=O)(=O)C(F)(F)F)cc1C1=NOC2CCCC12 (centres unmarked) , please? class 0

Now give it for Cc1cc(C)c(N(COC(=O)OC(C)C)S(=O)(=O)C(F)(F)F)cc1C1=NOC2CCCC12 (centres unmarked) too. class 1

* * *

Give Plant response rating, Foxtail, Giant for every item shown.
# System: Foxtail, Giant (giant foxtail, Setaria faberi)
# Run Description: Test A postemergence, Foxtail, Giant
# Format: in vivo
# Conditions Used: Postemergence, 31 g ai/ha; visual injury on 0 to 100 scale (0 no effect, 100 complete control), approx. 10 days
Reply with just the number.

Hi! What's the reported Plant response rating, Foxtail, Giant for Cc1cc(C)c(C(=O)N2CCCC(F)C2)cc1NS(=O)(=O)C(F)(F)F (centres unmarked) [Compound 155] on Foxtail, Giant (giant foxtail, Setaria faberi)? 20

Consider next the molecule CCC(=O)OCN(c1cc(C2=NOC3(CCCC3)C2)c(C)cc1C)S(=O)(=O)C(F)(F)F [Compound 144] in the same way. 0

Quick one: Cc1cc(C)c(C2=NOC3CCCCC23)cc1NS(=O)(=O)C(F)(F)F (centres unmarked) [Compound 131] 0

Quick one: Cc1cc(C)c(C(=O)N2COC(C)(C)C2)cc1NS(=O)(=O)C(F)(F)F [Compound 112] 10

Okay, and CCCCC(=O)OCN(c1cc(C2=NOC3(CCCC3)C2)c(C)cc1C)S(=O)(=O)C(F)(F)F [Compound 143] ? 0

* * *

# Test system: Pigweed, Palmer (palmer amaranth, palmer pigweed, Amaranthus palmeri)
# Run Description: Test A1 preemergence, Pigweed, Palmer
# Format: in vivo
# Conditions Used: 125 g ai/ha, 0 to 100 scale, 0 no effect, 100 complete control
Recorded Metric: Plant response rating, Pigweed, Palmer
Reply: number alone, nothing else.

I am curious: what Plant response rating, Pigweed, Palmer value has been reported for CCC1ON=C(c2cc(N(C(=O)OCC(C)C)S(=O)(=O)C(F)(F)F)c(C)cc2C)C1CC (stereo not shown) [Compound 345] ? 100

Queued: Cc1cc(C)c(N(COC(=O)C(C)(C)C)S(=O)(=O)C(F)(F)F)cc1N1CCC2(CCC(C)CC2)C1=O (stereo not shown) [Compound 401] 20

Moving on to the next compound: Cc1cc(F)c(NS(=O)(=O)C(F)(F)F)cc1C1=NOC2(CCCC2)C1 [Compound 303] 20

Now give it for C#CCN(C)C(=O)c1cc(NS(=O)(=O)C(F)(F)F)c(Cl)c(F)c1C [Compound 337] too. 100

Here is the next compound: Cc1c(C(=O)N2C[C@@H](C)O[C@H](C)C2)cc(N(COC(=O)C(C)(C)C)S(=O)(=O)C(F)(F)F)c(C)c1C (relative stereo) [Compound 373] 40

Likewise for COC1CCC2(CC1)CCN(c1cc(NS(=O)(=O)C(F)(F)F)c(C)cc1C)C2=O (stereo not shown) [Compound 398] ? 100

Note, next up: Cc1c(C(=O)N2CCOCC2)cc(N(COC(=O)C(C)(C)C)S(=O)(=O)C(F)(F)F)c(C)c1C [Compound 324] 100

* * *

# Test system: ragweed (common ragweed, Ambrosia artemisiifolia)
# Run Description: Test A postemergence, ragweed
# Format: in vivo
# Conditions Used: Ambrosia artemisiifolia, post-emergence, 240 h; Postemergence, 500 g ai/ha; visual injury vs untreated controls after approx. 10 days; 0 to 100 scale (0 no effect, 100 complete control); read-out: Ragweed plant response rating
Recorded Metric: pest or weed control at 500 g/ha (%)
Could you give me the number in %? Just the number is fine.

Could you tell me which pest or weed control at 500 g/ha is on file for `Cc1c(NS(=O)(=O)C(F)(F)F)cc(C(=O)N2CCOCC2)c(C)c1F` ? 90

Please answer likewise for `Cc1cc(C)c(N(COC(=O)C(C)(C)C)S(=O)(=O)C(F)(F)F)cc1C1=NOC2(CCCCC2)C1` 90

Do the same for `Cc1cc(C)c(N(COC(=O)C(C)(C)C)S(=O)(=O)C(F)(F)F)cc1C1=NO[C@@H]2CCC[C@H]12` please 80

What do you have for Cc1cc(C)c(C2=NOC3COCCC23)cc1NS(=O)(=O)C(F)(F)F (stereo not shown) ? 90

* * *

# System: Ryegrass, Italian (Italian ryegrass, Lolium multiflorum)
# Run Description: Test A preemergence, Ryegrass, Italian
# Assay type: in vivo
# Conditions Used: Preemergence, 125 g ai/ha; visual injury, 0 to 100 scale (0 no effect, 100 complete control), approx. 10 days
Recorded Metric: Plant response rating, Ryegrass, Italian
Number only, please.

Entry `Cc1cc(Cl)c(NS(=O)(=O)C(F)(F)F)cc1C1=NOC2(CCCC2)C1` : reported Plant response rating, Ryegrass, Italian = ? 90

For `Cc1cc(F)c(C(=O)N2CCCCC2)cc1N(S(=O)(=O)C(F)(F)F)S(=O)(=O)C(F)(F)F` then? 30

Can you handle `Cc1cc(C)c(C(=O)N2CCC(F)(F)C2)cc1NS(=O)(=O)C(F)(F)F` next? 40

Moving on to the next compound: `Cc1cc(C)c(C(=O)N2CCC3(CCCC3)CC2)cc1NS(=O)(=O)C(F)(F)F` 30

`Cc1cc(C)c(C2=NOC3(CCCCCC3)C2)cc1NS(=O)(=O)C(F)(F)F` , same question. 100

// same read-out, input: Cc1cc(F)c(C(=O)N2CC(C)OC(C)C2)cc1NS(=O)(=O)C(F)(F)F (stereo not shown) 60

Another compound: `Cc1cc(C)c(C(=O)N2CCC(CC(F)(F)F)CC2)cc1NS(=O)(=O)C(F)(F)F` 20

# iterate: Cc1cc(Cl)c(NS(=O)(=O)C(F)(F)F)cc1C(=O)N1CCOCC1C (stereo not shown) 80

Subsequent entry: `CC(=O)N(c1cc(C2=NOC3(CCCC3)C2)c(C)cc1C)S(=O)(=O)C(F)(F)F` 100

Same read-out for `Cc1cc(Cl)c(NS(=O)(=O)C(F)(F)F)cc1C1=NOC2(CCCCC2)C1` ? 100

* * *

# Tested on: corn (Zea mays)
# Run Description: Test A1 postemergence, corn
# Format: in vivo
# Conditions Used: Postemergence, 31 g ai/ha; 0 to 100 scale (0 no effect, 100 complete control); 10 days
Please respond with reported Plant response rating, Corn for every item in the list.
API note: the answer field is a bare number with no unit suffix.

Please report the recorded Plant response rating, Corn for CCC1ON=C(c2cc(N(COC(=O)C(C)(C)C)S(=O)(=O)C(F)(F)F)c(C)cc2C)C1CC (stereo not shown) [Compound 344] . 20

Item: Cc1c(C(=O)N2CCOCC2)cc(NS(=O)(=O)C(F)(F)F)c(Cl)c1F [Compound 321] 10

Also CCOC(=O)N(c1cc(C(=O)N2C[C@@H](C)O[C@@H](C)C2)c(C)c(C)c1C)S(=O)(=O)C(F)(F)F [Compound 332] ? 0

// same read-out, input: Cc1ccc(C2=NOC3CCCC23)cc1NS(=O)(=O)C(F)(F)F (stereo not shown) [Compound 377] 0

Request: Cc1c(C(=O)N2CCC(F)(F)CC2)cc(N(COC(=O)C(C)(C)C)S(=O)(=O)C(F)(F)F)c(C)c1C [Compound 360] 0

Try Cc1cc(C)c(N(COC(=O)C(C)(C)C)S(=O)(=O)C(F)(F)F)cc1C1=NOC2COCC12 (stereo not shown) [Compound 301] next. 0

Likewise for Cc1cc(C)c(N(COC(=O)C(C)(C)C)S(=O)(=O)C(F)(F)F)cc1C(=O)N1CCC(C)CC1 [Compound 353] ? 0

* * *

Give Plant response rating, Foxtail, Giant for every item shown.
# System: Foxtail, Giant (giant foxtail, Setaria faberi)
# Run Description: Test A preemergence, Foxtail, Giant
# Assay type: in vivo
# Conditions Used: Preemergence, 500 g ai/ha; 0 to 100 scale (0 no effect, 100 complete control)
I'd appreciate a reply containing only the number, no unit.

Which measured Plant response rating, Foxtail, Giant value corresponds to Cc1cc(C)c(-c2ccnn(C)c2=O)cc1NS(=O)(=O)C(F)(F)F [Compound 80] ? 100

Next entry: Cc1cc(F)c(C(=O)N2CCCCC2)cc1N(S(=O)(=O)C(F)(F)F)S(=O)(=O)C(F)(F)F [Compound 212] 90

Similarly, Cc1cc(C)c(C(=O)N2CCC3(CCCCC3)CC2)cc1NS(=O)(=O)C(F)(F)F [Compound 195] ? 90

Ok, now Cc1cc(C)c(N(S(=O)(=O)C(F)(F)F)S(=O)(=O)C(F)(F)F)cc1C1=NOC(C(C)(C)C)C1 (centres unmarked) [Compound 127] 90

Cool, now Cc1cc(C)c(N(S(=O)(=O)C(F)(F)F)S(=O)(=O)C(F)(F)F)cc1C1=NOC2(CCCCCC2)C1 [Compound 158] 100

Now consider Cc1cc(C)c(N(S(=O)(=O)C(F)(F)F)S(=O)(=O)C(F)(F)F)cc1-c1cn(C)c(=O)n(C)c1=O [Compound 42] . 100

Same thing, different compound: COC1CCCN(C(=O)c2cc(NS(=O)(=O)C(F)(F)F)c(Cl)cc2C)C1 (centres unmarked) [Compound 146] 100

Record: Cc1cc(Cl)c(NS(=O)(=O)C(F)(F)F)cc1C(=O)N1CC(C)OC(C)C1 (centres unmarked) [Compound 20] 100
